Every entry's value here was drawn from patent US20260174875A1.

- Experimental Target: human GLP-1 receptor (hGLP-1R) (Homo sapiens)
- Construct: expressed in transfected cells
- Sequence (P43220 24-463): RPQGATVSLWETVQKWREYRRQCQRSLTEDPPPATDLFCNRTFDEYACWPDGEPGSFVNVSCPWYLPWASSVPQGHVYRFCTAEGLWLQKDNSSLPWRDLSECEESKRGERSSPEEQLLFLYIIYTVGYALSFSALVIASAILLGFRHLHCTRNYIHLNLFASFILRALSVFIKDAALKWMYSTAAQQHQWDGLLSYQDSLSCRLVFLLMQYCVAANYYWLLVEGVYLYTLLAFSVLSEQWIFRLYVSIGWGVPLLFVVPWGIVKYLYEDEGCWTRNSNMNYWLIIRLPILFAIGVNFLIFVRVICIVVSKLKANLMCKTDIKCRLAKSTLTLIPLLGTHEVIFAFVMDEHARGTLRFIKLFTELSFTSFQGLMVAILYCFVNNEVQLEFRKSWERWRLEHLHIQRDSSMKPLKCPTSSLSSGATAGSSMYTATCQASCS
- Experiment Description: GLP-1 receptor assay, method B (CRE-luciferase reporter, BHK cells, 384-well)
- Assay type: cell-based
- Assay Setup: method B, absence of HSA; read-out: hGLP-1R Potency, no HSA, EC50
Numbered stars: 1 amine (or outer) side, 2 acyl side, 3 side chain; on linkers, the order of the positions; unused ones are H or OH. Square brackets hold non-standard residues; d marks the D form. Side chains are listed from the residue outwards. * marks the point of attachment. C20 diacid = O=C(O)CCCCCCCCCCCCCCCCCCC(=O)*; γGlu = O=C(O)[C@H](CCC(=O)[*:2])N[*:1]; AEEA = NCCOCCOCC(=O)O; Aib = CC(C)(N)C(=O)O
Endpoint Name: EC50 (nM)
Use nM as the unit, but write only the number.

[Q] Lab note: record EC50 of Y[Aib]EGTFTSDYSILLEEQAAREFIEWLLAGGPSSGAGQAPGQAPGASHLSTAQTQRLSAELHK([AEEA-AEEA-γGlu-C20 diacid])LATLPRTETGSGSP-NH2 [Compound 115] tested on human GLP-1 receptor (hGLP-1R) (Homo sapiens).
[A] 0.0194

---

- Experimental Target: human GIP receptor (hGIPR) (Homo sapiens, UniProt P48546)
- Construct: expressed in transfected cells
- Sequence (P48546 22-466): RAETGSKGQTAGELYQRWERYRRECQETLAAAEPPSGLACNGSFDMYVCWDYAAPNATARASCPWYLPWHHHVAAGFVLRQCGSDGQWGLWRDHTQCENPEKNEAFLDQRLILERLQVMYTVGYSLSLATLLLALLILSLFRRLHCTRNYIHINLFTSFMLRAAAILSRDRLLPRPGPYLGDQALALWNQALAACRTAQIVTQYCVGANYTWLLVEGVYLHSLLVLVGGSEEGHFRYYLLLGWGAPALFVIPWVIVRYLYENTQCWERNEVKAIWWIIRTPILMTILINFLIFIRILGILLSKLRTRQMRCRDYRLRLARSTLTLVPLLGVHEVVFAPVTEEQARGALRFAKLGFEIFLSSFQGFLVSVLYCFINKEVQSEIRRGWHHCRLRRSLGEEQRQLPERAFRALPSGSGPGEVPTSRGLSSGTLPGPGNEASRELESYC
- Experiment Description: GIP receptor assay, method A (CRE-luciferase reporter, BHK cells)
- Assay type: cell-based
- Assay Setup: hGIPR Potency, 1% HSA, EC50, method A, in the presence of 1% HSA
Numbered stars: 1 amine (or outer) side, 2 acyl side, 3 side chain; on linkers, the order of the positions; unused ones are H or OH. Square brackets hold non-standard residues; d marks the D form. Side chains are listed from the residue outwards. * marks the point of attachment. C20 diacid = O=C(O)CCCCCCCCCCCCCCCCCCC(=O)*; C18 diacid = O=C(O)CCCCCCCCCCCCCCCCC(=O)*; C16 diacid = O=C(O)CCCCCCCCCCCCCCC(=O)*; γGlu = O=C(O)[C@H](CCC(=O)[*:2])N[*:1]; AEEA = NCCOCCOCC(=O)O; Aib = CC(C)(N)C(=O)O
Label Y when EC50 is strictly below 0.01 nM; at or above that, label N.

Worked set:
Y[Aib]EGTFTSDYSILLEEQAAREFIEWLLAGGPSSGAGQAPGQAPGASHLSTAQTQRLSAELHRLATLPK([AEEA-AEEA-γGlu-C20 diacid])TETGSGSP-NH2 [Compound 76]: N
H[Aib]HGTFTSDYSILLEEQAAREFIEWLLAGGPSK([AEEA-AEEA-γGlu-C16 diacid])GEASELSTAALGRLSAELHRLATLPRTETGSGSP-NH2 [Compound 17]: N
H[Aib]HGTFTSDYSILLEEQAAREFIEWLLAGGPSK([AEEA-AEEA-γGlu-C18 diacid])GALAQTLGTNEASHLSTAQTQRLSAELHELATLPRTETGSGSP-NH2 [Compound 45]: N
H[Aib]HGTFTSDYSILLEEQAAREFIEWLLAGGPSSGALQAPGQAPGASHLSTAQTARLSAELHRLATLPK([AEEA-AEEA-γGlu-C18 diacid])TETGSGSP-NH2 [Compound 107]: Y

Could you now consider this next substance?
[Q] Decide: EC50 of Y[Aib]EGTFTSDYSILLEEQAAREFIEWLLAGGPSSGEASHLSTAQTQRLSAELHRLATLPK([AEEA-AEEA-γGlu-C18 diacid])TETGSGSP-NH2 [Compound 81] strictly below 0.01 nM?
[A] N
